# target desc: T1, thermostable variant of Streptomyces mobaraensis transglutaminase (Streptomyces mobaraensis, UniProt P81453 79-407)
# T1 sequence: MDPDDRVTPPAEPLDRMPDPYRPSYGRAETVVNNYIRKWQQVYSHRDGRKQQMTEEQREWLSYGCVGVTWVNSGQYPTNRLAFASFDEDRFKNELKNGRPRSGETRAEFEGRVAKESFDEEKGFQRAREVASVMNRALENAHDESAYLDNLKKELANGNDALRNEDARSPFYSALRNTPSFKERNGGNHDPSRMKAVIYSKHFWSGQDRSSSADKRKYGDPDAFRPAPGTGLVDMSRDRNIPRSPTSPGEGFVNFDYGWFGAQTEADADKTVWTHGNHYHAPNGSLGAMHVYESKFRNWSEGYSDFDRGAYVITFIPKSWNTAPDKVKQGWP
# procedure summary: cell-based or functional assay
observation type: Improvement in pH responsiveness of inhibitory peptide relative to WT

// known answers, use as guide
1. MDNGAGEETKSYAETYRCTADDVANINALNESAPAASSAGPSFRAP [pro-peptide variant L18C] : > 1.2 fold
2. MDNGAGEETKSGAETYRLTADDVANINALNESAPAASSAGPSFRAP [pro-peptide variant Y12G] : > 1.2 fold

Would you kindly look at the next entry?
The binder listed as MDNGAGEETKSYAETYRLTADDVANINALNESAPAASSAGPSFRAV [pro-peptide variant P46V] shows Improvement in pH responsiveness of inhibitory peptide relative to WT equal to > 1.2 fold
